biological target: TGF-alpha receptor obtained from A 431 cell membranes (Homo sapiens (Human), UniProt P00533); test: displacement of I^125-TGF-alpha from its receptor on A 431 cell membranes (radioligand competition)
Reported Endpoint: pKi
One number for each entry, as −log10 of the molar value.

Consider the binder Component B (other, SO4 group bound to Tyr (39); five disulfide bridges (urinary material)) LKCYTCKEPMTSASCRTITRCKPEDTACMTTLVTVEAEYPFNQSPVVTRSCSSSCVATDPDSIGAAHLIFCCFRDLCNSEL and give its measured pKi.
10.11
